# SYSTEM_UNDER_TEST: full-length human Plk1 (Homo sapiens (Human), UniProt P53350)
# Sequence (P53350 whole entry): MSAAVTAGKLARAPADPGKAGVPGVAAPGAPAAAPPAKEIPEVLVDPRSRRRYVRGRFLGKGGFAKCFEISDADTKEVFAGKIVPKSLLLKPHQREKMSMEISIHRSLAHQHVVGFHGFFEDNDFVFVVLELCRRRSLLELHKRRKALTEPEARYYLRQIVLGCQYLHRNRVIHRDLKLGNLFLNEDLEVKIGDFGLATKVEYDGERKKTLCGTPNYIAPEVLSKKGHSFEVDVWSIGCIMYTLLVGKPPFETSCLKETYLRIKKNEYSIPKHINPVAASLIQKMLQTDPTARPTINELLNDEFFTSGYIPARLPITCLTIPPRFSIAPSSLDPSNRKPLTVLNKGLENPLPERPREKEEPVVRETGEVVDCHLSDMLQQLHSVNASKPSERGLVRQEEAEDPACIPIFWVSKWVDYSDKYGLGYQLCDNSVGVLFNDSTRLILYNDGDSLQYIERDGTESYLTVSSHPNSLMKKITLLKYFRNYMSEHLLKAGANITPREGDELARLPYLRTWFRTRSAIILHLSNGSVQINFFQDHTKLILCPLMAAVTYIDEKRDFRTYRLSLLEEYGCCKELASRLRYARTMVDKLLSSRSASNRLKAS
# TEST_METHOD_NOTES: ELISA-based Plk1 PBD-binding inhibition assay
# DETAILS: Plk1 PBD; n = 3 unless noted
Listing of recorded IC50 by entry.
OUTCOME_MEASURE: IC50 (µM)

* CCCCCn1c(=O)c2ccccc2n2c(=S)[nH]nc12 | 1.97
* Cc1cccc(-n2c(=O)c3ccccc3n3c(=S)[nH]nc23)c1C | 1.85
* COCCCn1c(=O)c2ccccc2n2c(=S)[nH]nc12 | 1.75
* CCOCCCn1c(=O)c2ccccc2n2c(=S)[nH]nc12 | 1.68
* C=CCn1c(=O)c2ccccc2n2c(=S)[nH]nc12 | 1.31
* CCCCn1c(=O)c2ccccc2n2c(=S)[nH]nc12 | 1.03
* CC(C)CCn1c(=O)c2ccccc2n2c(=S)[nH]nc12 | 1.73
* CCCn1c(=O)c2ccccc2n2c(=S)[nH]nc12 | 1.03
